Below, each of the binders is paired with its reported % Inhibition value.
# ASSAY_TARGET: T1, human ferroportin 1 (human, UniProt Q9NP59 1-571)
# T1 construct: also called human FPN1; FPN1
# T1 sequence: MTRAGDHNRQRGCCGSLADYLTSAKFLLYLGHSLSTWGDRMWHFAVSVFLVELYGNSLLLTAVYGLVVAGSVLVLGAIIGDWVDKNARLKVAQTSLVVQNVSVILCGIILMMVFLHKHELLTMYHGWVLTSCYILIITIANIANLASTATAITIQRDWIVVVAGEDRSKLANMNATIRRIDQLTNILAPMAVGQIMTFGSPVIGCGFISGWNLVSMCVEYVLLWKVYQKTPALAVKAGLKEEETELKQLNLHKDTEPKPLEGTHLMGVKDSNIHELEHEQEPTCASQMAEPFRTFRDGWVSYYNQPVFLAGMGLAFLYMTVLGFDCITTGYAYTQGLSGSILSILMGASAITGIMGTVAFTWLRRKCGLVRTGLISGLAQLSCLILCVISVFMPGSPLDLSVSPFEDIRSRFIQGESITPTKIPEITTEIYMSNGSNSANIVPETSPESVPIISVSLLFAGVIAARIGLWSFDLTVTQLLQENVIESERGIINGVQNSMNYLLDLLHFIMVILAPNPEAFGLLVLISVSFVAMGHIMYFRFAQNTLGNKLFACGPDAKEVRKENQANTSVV
# TEST_DETAILS: inhibition of binding of 30 nM biotinylated hepcidin to FPN/293 cells, ELISA of lysate; antibody at 2000 nM; mean
The reply should be a number in %, with the unit left off.

BINDER	MEASUREMENT
Mab Combi11 (antibody, human IgG4 S228P, kappa, F234A L235A, V domains shown) VH: QVQLVQSGAEVKKPGSSVKVSCKASGYAFTSFLIEWVRQAPGQGLEWMGTSNPRTGRTKYKSKFRGRVTITADKSTSTAYMELSSLRSEDTAVYYCAREFFDYWGQGTTVTVSS VL: DIQMTQSPSSLSASVGDRVTITCRASKSISKYTAWYQQKPGKAPKLLIYAGSKRHWGVPSRFSGSGSGTDFTLTISSLQPEDFATYYCQQHNEYPYTFGGGTKVEIKR	79.9
Mab L2.2-4 (antibody, human IgG4 S228P, kappa, F234A L235A, V domains shown) VH: QVQLVQSGAEVKKPGSSVKVSCKASGYAFTSFLIEWVRQAPGQGLEWMGTSNPRTGGRKYKEKFRGRVTITADKSTSTAYMELSSLRSEDTAVYYCAREFFDYWGQGTTVTVSS VL: DIQMTQSPSSLSASVGDRVTITCRASKSISKYTAWYQQKPGKAPKLLIYAGSKLRSGVPSRFSGSGSGTDFTLTISSLQPEDFATYYCQQHNEYPYTFGGGTKVEIKR	85.1
Mab 3D8 (antibody, human IgG4 S228P, kappa, F234A L235A, V domains shown, Humanized form of mouse 1G9 with human heavy chain framework VH1-69 and light chain framework O2; also called human 3D8) VH: QVQLVQSGAEVKKPGSSVKVSCKASGYAFTSFLIEWVRQAPGQGLEWMGTSNPRTGGTKYKEKFRGRVTITADKSTSTAYMELSSLRSEDTAVYYCAREFFDYWGQGTTVTVSS VL: DIQMTQSPSSLSASVGDRVTITCRASKSISKYTAWYQQKPGKAPKLLIYAGSKLHSGVPSRFSGSGSGTDFTLTISSLQPEDFATYYCQQHNEYPYTFGGGTKVEIKR	54.7

Note: attention shifts to another entry.
Record Mab 4A10-3 (antibody, human IgG4 S228P, kappa, F234A L235A, V domains shown) VH: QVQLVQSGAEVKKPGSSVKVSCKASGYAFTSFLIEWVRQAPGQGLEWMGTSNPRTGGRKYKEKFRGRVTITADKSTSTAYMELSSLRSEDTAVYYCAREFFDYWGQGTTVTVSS VL: DIQMTQSPSSLSASVGDRVTITCRASKSISKYTAWYQQKPGKAPKLLIYAGSKLHWGVPSRFSGSGSGTDFTLTISSLQPEDFATYYCQQHNEYPYTFGGGTKVEIKR . Reported % Inhibition: 95.3
